The reported measurements were obtained from the supplement of paper PMC10724198.

Entries and their protein stability index
tested on: Saccharomyces cerevisiae; test: protein stability index of tFT-peptide fusion (C-terminal peptide) (PSI (0-1 scale)); higher = more stable (slower turnover); details: genetic background: wild type; temperature: 37 C
Reply with the value as a number alone.

SIRIIVVVRGAS	0.543

[ask] Provide protein stability index value for the following sequence: `CLCVLVSFFFGL`
[reply] 0.477

[ask] Provide protein stability index value for the following sequence: `LACGIDGYYWRH`
[reply] 0.709

[ask] Provide protein stability index value for the following sequence: `IFLKFGLLRSLL`
[reply] 0.792

[ask] Provide protein stability index value for the following sequence: `AFSISPFRLRMV`
[reply] 0.541

[ask] Provide protein stability index value for the following sequence: `SSCLPAPPPLPL`
[reply] 0.701

----------
test system: Saccharomyces cerevisiae; assay: protein stability index of tFT-peptide fusion (C-terminal peptide) (PSI (0-1 scale)); higher = more stable (slower turnover); details: genetic background: wild type; temperature: 30 C
Record Met whenever protein stability index is at 0.7 or higher; record Not met when lower.

KKKKKKDQKNKK	Met
RVEGGWGEAWRE	Met
GVARGFGVVVPA	Not met

[ask] Dear colleague, could you confirm whether `GWQCGVNRGGWW` has protein stability index at or above 0.7?
[reply] Met

[ask] Dear colleague, could you confirm whether `KCCRRPPPAFRS` has protein stability index at or above 0.7?
[reply] Met

[ask] Dear colleague, could you confirm whether `SPPSPRLPPPLL` has protein stability index at or above 0.7?
[reply] Met

----------
tested on: Saccharomyces cerevisiae; experiment: protein stability index of tFT-peptide fusion (C-terminal peptide) (PSI (0-1 scale)); higher = more stable (slower turnover); conditions: genetic background: wild type; temperature: 30 C
Quantity Measured: protein stability index
Reply with the value as a number alone.

Known results for sequences:
IELWETFYQTNL [VPS5 C-terminal 12 aa]	0.718
LQNNDVTIGFAK [MUD1 C-terminal 12 aa]	0.655
VKFGLQMAYLQS [YMR007W C-terminal 12 aa]	0.659

[ask] Provide protein stability index value for the following sequence: VGRHSSRLMCPG [YBR126W-B C-terminal 12 aa]
[reply] 0.689

[ask] Provide protein stability index value for the following sequence: EWTKLYAKKKPE [UBC13 C-terminal 12 aa]
[reply] 0.711

[ask] Provide protein stability index value for the following sequence: DDIANNQSICCV [YPT11 C-terminal 12 aa]
[reply] 0.649

----------
system: Saccharomyces cerevisiae; assay: protein stability index of tFT-peptide fusion (C-terminal peptide) (PSI (0-1 scale)); higher = more stable (slower turnover); conditions: genetic background: das1 deletion; temperature: 30 C
Quantity Measured: protein stability index
Reply with the value as a number alone.

Known results for sequences:
LFLSIFFFHLLF	0.338
PDCRPPLVRCLL	0.827
CFFMVGFVFYFV	0.291

Field: next sequence
[ask] Provide protein stability index value for the following sequence: `CLFSPFCFILFC`
[reply] 0.0898

----------
test system: Saccharomyces cerevisiae; experiment: protein stability index of tFT-peptide fusion (C-terminal peptide) (PSI (0-1 scale)); higher = more stable (slower turnover); conditions: genetic background: wild type; temperature: 30 C
Record Satisfied whenever protein stability index is at 0.7 or higher; record Not satisfied when lower.

These solved cases illustrate the format of a correct answer.
KAALDRVENALA [IML2 C-terminal 12 aa]	Not satisfied
EKIKRDLALKKG [PET100 C-terminal 12 aa]	Not satisfied
STCIYLYTHNSM [YBR206W C-terminal 12 aa]	Not satisfied
FFFLLTSLLSPF [LCL1 C-terminal 12 aa]	Not satisfied
DDSKILIEHLSE [PET54 C-terminal 12 aa]	Not satisfied

Moving on to the next sequence.
[ask] Dear colleague, could you confirm whether EQLADYLIGVQY [PFY1 C-terminal 12 aa] has protein stability index at or above 0.7?
[reply] Not satisfied
